Biological target: Stat1 (Homo sapiens, UniProt P42224)
Construct: endogenous in cells
Sequence (P42224 1-750): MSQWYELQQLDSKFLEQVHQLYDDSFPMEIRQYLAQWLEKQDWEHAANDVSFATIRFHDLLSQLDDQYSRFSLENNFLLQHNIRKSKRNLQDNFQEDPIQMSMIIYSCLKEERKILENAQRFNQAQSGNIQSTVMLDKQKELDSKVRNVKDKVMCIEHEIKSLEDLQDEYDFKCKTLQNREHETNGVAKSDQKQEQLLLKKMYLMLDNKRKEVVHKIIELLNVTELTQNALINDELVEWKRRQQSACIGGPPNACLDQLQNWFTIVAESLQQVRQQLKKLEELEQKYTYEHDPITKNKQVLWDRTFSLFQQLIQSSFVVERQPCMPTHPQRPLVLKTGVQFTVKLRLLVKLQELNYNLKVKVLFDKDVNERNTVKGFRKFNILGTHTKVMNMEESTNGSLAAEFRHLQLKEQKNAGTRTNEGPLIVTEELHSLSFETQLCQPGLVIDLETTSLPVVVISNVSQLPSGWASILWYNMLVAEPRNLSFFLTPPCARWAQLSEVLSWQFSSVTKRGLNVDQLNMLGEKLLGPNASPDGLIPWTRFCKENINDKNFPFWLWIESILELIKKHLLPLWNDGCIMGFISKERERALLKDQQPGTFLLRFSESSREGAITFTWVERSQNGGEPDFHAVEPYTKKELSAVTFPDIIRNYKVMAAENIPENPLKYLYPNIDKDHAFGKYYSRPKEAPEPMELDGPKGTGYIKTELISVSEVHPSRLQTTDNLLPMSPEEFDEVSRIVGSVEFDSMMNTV
Test: Inhibition of IL-6-mediated phosphorylation of Stat1
Details: read-out: IC50 Phosphorylation pSTAT1
MEASURED_QUANTITY: IC50 (µM)
Field: numeric (µM). Do not append units.

Which IC50 is reported for this compound? COc1ccc(S(=O)(=O)Nc2cc(-c3c(O)ccc4ccccc34)c(O)c3ccccc23)cc1 [Formula IIIx]
4.1
